Entries and their growth inhibition
assay: NCI Yeast Anticancer Drug Screen. Data for the mlh1 rad18 strain (AID 175); conditions: S. cerevisiae mlh1 rad18 strain growth inhibition; at 5.0 µM (retest, dose inferred, filed as 0.5); active compounds read high
Compounds without any hit were thinned out: in the full panel of roughly 79,000, 15% have a hit.
Field: numeric (%). Do not append units.

These solved cases illustrate the format of a correct answer.
> print(dat)
                                   compound  numeric.value
1               Oc1ccc(N=Nc2ccc(Cl)cc2)cc1O             -7
2  N#CC(CC(Br)CBr)(c1ccccc1)c1ccccc1 (centres undefined)             16
3   C[n+]1c2ccc(Cl)cc2nc2cc(-c3ccccc3)ccc21             39
4  CC1=CC2OC3CC4OC(=O)/C=C/C=C/C(C(C)O)OCC(=O)C(C)CC(=O)OCC2(CC1)C4(C)C31CO1 (centres undefined)             65
5  N#CC(c1ccc(Cl)cc1)c1ccc([N+](=O)[O-])cc1 (centres undefined)             -5

Field request: growth inhibition | item: C(=C1/CNC/C(=C/c2ccccc2)C1)/c1ccccc1
-1

Field request: growth inhibition | item: CCOC(=O)C(=C=Cc1cccs1)C(=O)c1ccccc1
-10

Field request: growth inhibition | item: O=c1ssc(=Nc2ccc(Cl)cc2)n1-c1ccc(Cl)cc1
30

Field request: growth inhibition | item: O=C(c1ccc(F)cc1)c1ccc(Cl)cc1Cl
99

Field request: growth inhibition | item: Cc1cc(N)c(C)c2c1[nH]c1ccc(Br)cc12
3

Field request: growth inhibition | item: Cc1cc(C)[nH]c(=S)n1.[Pt]
-2

Field request: growth inhibition | item: CN1CCCCC1c1cc2c3ccccc3ccn2c1-c1ccccc1 (centres undefined)
69

----------
Entries and their growth inhibition
assay: NCI Yeast Anticancer Drug Screen. Data for the mec2-1 strain (AID 157); conditions: S. cerevisiae mec2-1 strain, at 50.0 µM, active compounds read high
The panel holds about 79,000 compounds, 15% with a hit somewhere; the sample as a whole holds those more often. Activity calls are given as the source filed them. No stated cut-off is given here; in the data, active means growth inhibition above about 70%; inactive means the rest.

These solved cases illustrate the format of a correct answer.
> print(dat)
                                   compound  measured.endpoint             result
1  O=C1C(=O)N(c2ccc(Cl)c(Cl)c2)C(=O)C(=O)C1c1nc2ccccc2o1  growth inhibition     92.8% (active)
2             Cc1c2ccncc2c(C)c2c1sc1ccccc12  growth inhibition       90% (active)
3             Cc1nc2c(cnn2-c2ccccc2)c(=O)o1  growth inhibition   2.25% (inactive)
4                    CCCCCCOC(=O)COc1ccccc1  growth inhibition   -0.8% (inactive)
5  Cc1cc(N(CCOS(C)(=O)=O)CCOS(C)(=O)=O)ccc1C=Nc1ccc(-c2csc(-c3ccc(Br)cc3)n2)cc1  growth inhibition     94.2% (active)
6  O=C(Nc1ncnc2c1ncn2C1CC(O)C(CO)O1)c1ccccc1 (centres undefined)  growth inhibition  -11.3% (inactive)
7                Nc1ccc2ccccc2c1N=Nc1ccccc1  growth inhibition       99% (active)
8                              NSc1ccc(N)s1  growth inhibition   28.9% (inactive)

Now examine the next entry.
Field request: growth inhibition | item: Nc1ccc([N+](=O)[O-])cc1Nc1c2ccccc2nc2ccccc12
17.7% (inactive)

----------
experiment: NCI Yeast Anticancer Drug Screen. Data for the cln2 rad14 strain (AID 165);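 further: 0% = growth equal to vehicle treated cultures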; details: S. cerevisiae cln2 rad14 strain, at 50.0 µM
The panel holds about 79,000 compounds, 15% with a hit somewhere; the sample as a whole holds those more often. The source made the active and inactive calls. No stated cut-off is given here; in the data, active means growth inhibition above about 70%; inactive means the rest.
Use one of these outcomes when replying: active, inactive

Study these solved cases before continuing.
> print(dat)
                                   compound  class.name
1     O=C(Nc1cccc(C(F)(F)F)c1)O/N=C(/Cl)CCl      active
2               Oc1ccc(N=Nc2ccc(Cl)cc2)cc1O      active
3                 CCOC(=O)c1c(N)sc2c1CCCCC2    inactive
4  CC(C)CCCOC(=O)c1cc([N+](=O)[O-])cc([N+](=O)[O-])c1    inactive

Write down the call the test reported for this compound. Item: CC(=O)NC1C(=O)CC(c2ccccc2)N(C)C1c1ccccc1 (configuration not stated)
inactive

Write down the call the test reported for this compound. Item: COC(=O)/C=C(\Cl)C(=O)OC
active

Write down the call the test reported for this compound. Item: NC(=S)C(=Nc1ccccc1F)Nc1ccccc1F
inactive

Write down the call the test reported for this compound. Item: CCc1c(O)c(O)c(C(C)=O)c2c(O)c(-c3c(C)cc4c(CC)c(O)c(O)c(C(C)=O)c4c3O)c(C)cc12
active

Write down the call the test reported for this compound. Item: CCCCCCCCCCCCCCCCP(=O)([O-])OCC[N+](C)(C)C
active

----------
experiment: NCI Yeast Anticancer Drug Screen. Data for the sgs1 mgt1 strain (AID 161);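 further: 0% = growth of cultures given vehicle only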; details: S. cerevisiae sgs1 mgt1 strain, at 50.0 µM
The panel holds about 79,000 compounds, 15% with a hit somewhere; the sample as a whole holds those more often. Calls of active or inactive are those of the source. No stated cut-off is given here; in the data, active means growth inhibition above about 70%; inactive means the rest.
Use one of these outcomes when replying: active, inactive

> print(dat)
                                   compound  class.name
1  NC(=O)c1ncn(C2OC(CO)C(O)C2O)c1O (stereo not drawn)    inactive

Please find the next compound below.
Write down the call the test reported for this compound. Item: Cn1c(=O)cc[nH]c1=O
inactive

----------
test: NCI Yeast Anticancer Drug Screen. Data for the mlh1 rad18 strain (AID 175); conditions: S. cerevisiae mlh1 rad18 strain growth inhibition; at 50.0 µM
Compounds without any hit were thinned out: in the full panel of roughly 79,000, 15% have a hit. Calls of active or inactive are those of the source. Cut-off read from the data, not from the text of the source: active = growth inhibition above about 70%; inactive = the rest.
Use one of these outcomes when replying: True = active, False = inactive

Write down the call the test reported for this molecule. Item: CCN(CCCOc1ccccc1)CCN(CC)CCCOc1ccccc1
False

Write down the call the test reported for this molecule. Item: CCc1cccc(C)c1NC(=O)/C(Cl)=C(\Cl)C(=O)O
True

Write down the call the test reported for this molecule. Item: CCNC1(C2c3ccccc3-c3ccccc32)c2ccccc2-c2ccccc21
False

----------
assay: NCI Yeast Anticancer Drug Screen. Data for the cln2 rad14 strain (AID 165);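 further: 0% = growth equal to vehicle treated cultures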; conditions: S. cerevisiae cln2 rad14 strain, at 50.0 µM, active compounds read high
About 79,000 compounds went through this panel and 15% of them were active in at least one assay; those are over-represented in the sample as a whole.
Output: class label from growth inhibition. Mapping: LOW (below 40%), MID (40% to below 90%), HIGH (90% or more)

Study these solved cases before continuing.
> print(dat)
                                   molecule  class.name
1  CC1C[C@]2(C)C(=S)Nc3ccccc3[C@@H]2Nc2ccccc21 (some centres not stated)         LOW
2  CC(=O)Oc1cc(OC(C)=O)c2cc(Br)ccc2c1OC(C)=O         MID
3  CC1CCN(CCOC(=O)C(c2ccccc2)C2C=CCCC2)C1 (configuration not stated)         MID
4           COc1ccc(/C=C2/C(=O)ON=C2C)cc1OC         MID
5             C=CCc1cccc(/C=N\N=C(/N)NO)c1O         MID

// return the class label for O=c1c(Cl)nsnc1Cl
HIGH

// return the class label for CCSSC12CCCN1C(=O)C(C)N(C)C2=O (configuration not stated)
LOW

// return the class label for Cc1ccc(C(=O)OCCN2CCN(c3ccccc3)CC2)c([N+](=O)[O-])c1OCc1ccccc1
MID

// return the class label for C/C=C/C(=O)N1c2ccccc2CC1c1c(C)[nH]c2ccccc12 (configuration not stated)
HIGH

// return the class label for Clc1ccc(-c2nnc(-c3ccccn3)o2)c(Cl)c1
HIGH

// return the class label for CC/C(=N\O)c1ccc2cc(Br)c3ccccc3c2c1
HIGH

----------
experiment: NCI Yeast Anticancer Drug Screen. Data for the mlh1 rad18 strain (AID 175); settings: S. cerevisiae mlh1 rad18 strain growth inhibition; at 50.0 µM; active compounds read high
The panel holds about 79,000 compounds, 15% with a hit somewhere; the sample as a whole holds those more often.
So basically: growth inhibition at 90% or higher? That is T. Lower than 90%? That is F.

> print(dat)
                                   molecule  class.name
1  COC(=O)c1ccccc1C=C(c1ccc([N+](=O)[O-])cc1)c1ccc([N+](=O)[O-])cc1           T

Please find the next molecule below.
Determine whether this molecule has growth inhibition no lower than 90%: CN(C)C(=S)/N=c1\sn(C)/c(=N\C(=S)N(C)C)n1C
F
